Target: T1, PUF4 RNA-binding domain (Saccharomyces cerevisiae, UniProt P25339 537-888)
T1 sequence: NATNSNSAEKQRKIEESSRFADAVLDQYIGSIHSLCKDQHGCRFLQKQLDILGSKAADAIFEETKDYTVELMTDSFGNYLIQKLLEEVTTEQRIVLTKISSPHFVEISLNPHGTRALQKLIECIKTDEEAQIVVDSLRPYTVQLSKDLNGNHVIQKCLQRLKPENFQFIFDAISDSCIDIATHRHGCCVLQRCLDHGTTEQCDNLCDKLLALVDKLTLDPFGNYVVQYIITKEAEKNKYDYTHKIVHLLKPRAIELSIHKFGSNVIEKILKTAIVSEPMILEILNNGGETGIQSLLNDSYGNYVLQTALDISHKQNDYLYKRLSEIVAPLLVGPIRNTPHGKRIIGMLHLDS
Assay: Mg; RNA-MaP; 20 mM Na-HEPES pH 7.4, 30 mM KOAc, 0.75 mM MgCl2, 0.1% Tween-20, 5% glycerol, 0.1 mg/mL BSA, 2 mM DTT; 25 C; 0.0125-409.6 nM protein
Settings: tags: N-His6-TEV cleaved; C-SNAP kept, Cy3B-labelled; label: tethered on chip by stalled RNA polymerase
outcome measure: pKd
Convention used: pKd is expressed as -log10 of the molar concentration.

See these solved cases before continuing.
[[record]]
binder = "Ic_S4_P4E.1_K4.1_C4.1_H4.1_A4.1_[T5C]_[A6C]_[T7C]_F4.1_[T8C]_[A9G]_T4.1 (ssRNA) RNA: UUUGACAACUGAUCGUUCUUUCUUGUACCCCGUUCUUUCUCGAUCAGUUGUCUUU"
result_value = 6.19

[[record]]
binder = "UCUCUUUGUAUCUGUCUCUU (ssRNA) [Ib_S1_P3E.1_K3.1_C3.1_H3.1_A3.1_[A6C]_F3.1_[A8G]_T3.1]"
result_value = 7.09


Fill in pKd for record Id_ii_S2_P3E.4_K3.3_C3.2_[C-2G]_[T-1C]_H3.3_A3.1_F3.1_T3.2_[T9C] (ssRNA) RNA: UUUGAUUAAUAUGAUAUCGUUCUUUCUGCACACUAUACAUUCUUUCUCGAUAUCAUAUUAAUCUUU
7.11
